Molecular target: HLA-A*01:01
Test: IEDB peptide-MHC binding, purified MHC/competitive/fluorescence; bounds were set here for any values at or beyond the usual limits of such assays
Details: source organism: Vaccinia virus
property_name: IC50 (µM)
One number for each entry, in µM.

Param item = WAMEKSSKY ; retrieve measured IC50.
36.8

* * *

Molecular target: HLA-B*08:01
Assay: IEDB peptide-MHC binding, purified MHC/direct/fluorescence; filed as Kd, often an IC50 or EC50 that approximates it; bounds were set here for any values at or beyond the usual limits of such assays
Conditions: source organism: Orthohantavirus andesense
property_name: Kd (nM)
One number for each entry, in nM.

Param item = YLQAKSQVL ; retrieve measured Kd.
471

Where do these numbers come from? They come from the Immune Epitope Database (IEDB).
